Test system: Crude diglycosidase
Assay: Examination of temperature in the conversion into isoflavone aglycons by diglycosidase using soybean materials
Assay type: biochemical, Penicillium multicolor IAM7153
Details: 80° C., heat treatment of enzyme yes, reaction time 6 h
Readout: Decomposition efficiency of genistin family in defatted soybean (%)

(I) O=c1c(-c2ccc(O)cc2)coc2cc(O[C@@H]3O[C@H](CO)[C@@H](O)[C@H](O)[C@H]3O)cc(O)c12 [genistin]
(II) O=C(O)CC(=O)OC[C@H]1O[C@@H](Oc2cc(O)c3c(=O)c(-c4ccc(O)cc4)coc3c2)[C@H](O)[C@@H](O)[C@@H]1O [malonylgenistin, 6″-O-malonylgenistin]
(III) CC(=O)OC[C@H]1O[C@@H](Oc2cc(O)c3c(=O)c(-c4ccc(O)cc4)coc3c2)[C@H](O)[C@@H](O)[C@@H]1O [acetylgenistin, 6″-O-acetylgenistin]
In: List the 3 entries from lowest Decomposition efficiency of genistin family in defatted soybean to highest Decomposition efficiency of genistin family in defatted soybean value. I would appreciate it if you listed the labels in the requested order.
Out: III, II, I
(III: 2.4%, II: 20.1%, I: 57.8%)

----------
Test system: Crude diglycosidase
Assay: Examination of temperature in the conversion into isoflavone aglycons by diglycosidase using soybean materials
Type: biochemical, Penicillium multicolor IAM7153
Parameters: concentration or dose not given beside the values
Details: 80° C., heat treatment of enzyme no, reaction time 0 h
Readout: Decomposition efficiency of glycitin family in defatted soybean (%)

(a) COc1cc2c(=O)c(-c3ccc(O)cc3)coc2cc1O[C@@H]1O[C@H](COC(=O)CC(=O)O)[C@@H](O)[C@H](O)[C@H]1O
(b) COc1cc2c(=O)c(-c3ccc(O)cc3)coc2cc1O
In: // compare measured Decomposition efficiency of glycitin family in defatted soybean, left a , right b , return larger Returns: label corresponding to the selected item.
Out: a
(a: 65.2%, b: 34.8%)

----------
Decomposition efficiency of daidzin family in roasted soy flour reference
Tested on: Crude diglycosidase
Experiment: Examination of pH in the conversion into isoflavone aglycons by diglycosidase using soybean materials
Format: biochemical, Penicillium multicolor IAM7153
Conditions: pH4, heat treatment of enzyme no, reaction time 6 h, 55° C.
API note: the answer field is a bare number with no unit suffix.

In: Supply reported Decomposition efficiency of daidzin family in roasted soy flour belonging to this molecule: CC(=O)OC[C@H]1O[C@@H](Oc2ccc3c(=O)c(-c4ccc(O)cc4)coc3c2)[C@H](O)[C@@H](O)[C@@H]1O [acetyldaidzin, 6″-O-acetyldaidzin]
Out: 11.1

In: Supply reported Decomposition efficiency of daidzin family in roasted soy flour belonging to this molecule: O=c1c(-c2ccc(O)cc2)coc2cc(O)ccc12 [daidzein]
Out: 88.9

----------
Tested on: Crude diglycosidase
Experiment: Examination of temperature in the conversion into isoflavone aglycons by diglycosidase using soybean materials
Assay type: biochemical, Penicillium multicolor IAM7153
Conditions: 30 °C; heat treatment of enzyme: no; 0 h
Readout: Decomposition efficiency of glycitin family in soymilk (%)

- Query Smiles: "COc1cc2c(=O)c(-c3ccc(O)cc3)coc2cc1O[C@@H]1O[C@H](CO)[C@@H](O)[C@H](O)[C@H]1O"
  Result: 43.9

(P) COc1cc2c(=O)c(-c3ccc(O)cc3)coc2cc1O
(Q) COc1cc2c(=O)c(-c3ccc(O)cc3)coc2cc1O[C@@H]1O[C@H](COC(=O)CC(=O)O)[C@@H](O)[C@H](O)[C@H]1O
In: Please indicate which item has the smaller measured Decomposition efficiency of glycitin family in soymilk: P versus Q Returns: label corresponding to the selected item.
Out: P

----------
Test system: Crude diglycosidase
Assay: Examination of temperature in the conversion into isoflavone aglycons by diglycosidase using soybean materials
Format: biochemical, Penicillium multicolor IAM7153
Parameters: concentration or dose not given beside the values
Settings: 45° C., heat treatment of enzyme no, reaction time 0 h
Readout: Decomposition efficiency of daidzin family in defatted soybean (%)

- Query Smiles: "O=c1c(-c2ccc(O)cc2)coc2cc(O[C@@H]3O[C@H](CO)[C@@H](O)[C@H](O)[C@H]3O)ccc12"
  Uom: "%"
  Result: 40.5

(a) O=C(O)CC(=O)OC[C@H]1O[C@@H](Oc2ccc3c(=O)c(-c4ccc(O)cc4)coc3c2)[C@H](O)[C@@H](O)[C@@H]1O
(b) O=c1c(-c2ccc(O)cc2)coc2cc(O)ccc12
In: // compare measured Decomposition efficiency of daidzin family in defatted soybean, left a , right b , return larger Returns: label corresponding to the selected item.
Out: a
(a: 43.3%, b: 16.2%)

----------
Decomposition efficiency of daidzin family in concentrated soybean protein reference
Tested on: Crude diglycosidase
Test: Examination of pH in the conversion into isoflavone aglycons by diglycosidase using soybean materials
Type: biochemical, Penicillium multicolor IAM7153
Details: pH2.7; heat treatment of enzyme: yes; reaction time 6 h
Respond with the bare value in %.

- Query Smiles: "CC(=O)OC[C@H]1O[C@@H](Oc2ccc3c(=O)c(-c4ccc(O)cc4)coc3c2)[C@H](O)[C@@H](O)[C@@H]1O"
  Uom: "%"
  Result: 43.9

In: Supply reported Decomposition efficiency of daidzin family in concentrated soybean protein belonging to this molecule: O=c1c(-c2ccc(O)cc2)coc2cc(O)ccc12
Out: 3.2

In: Supply reported Decomposition efficiency of daidzin family in concentrated soybean protein belonging to this molecule: O=c1c(-c2ccc(O)cc2)coc2cc(O[C@@H]3O[C@H](CO)[C@@H](O)[C@H](O)[C@H]3O)ccc12
Out: 53.0

----------
Tested on: Crude diglycosidase
Test: Examination of temperature in the conversion into isoflavone aglycons by diglycosidase using soybean materials
Assay type: biochemical, Penicillium multicolor IAM7153
Details: 45° C., heat treatment of enzyme no, reaction time 1 h
Readout: Decomposition efficiency of daidzin family in concentrated soybean protein (%)
Respond with the bare value in %.

The cases that follow already have their Decomposition efficiency of daidzin family in concentrated soybean protein on record.
- Query Smiles: "O=c1c(-c2ccc(O)cc2)coc2cc(O[C@@H]3O[C@H](CO)[C@@H](O)[C@H](O)[C@H]3O)ccc12"
  Result: 10.6
- Query Smiles: "CC(=O)OC[C@H]1O[C@@H](Oc2ccc3c(=O)c(-c4ccc(O)cc4)coc3c2)[C@H](O)[C@@H](O)[C@@H]1O"
  Result: 44.1

# next molecule below
In: Param request: Decomposition efficiency of daidzin family in concentrated soybean protein | system Crude diglycosidase | item O=c1c(-c2ccc(O)cc2)coc2cc(O)ccc12
Out: 45.3

----------
Test system: Crude diglycosidase
Assay: Examination of substrate concentration in the conversion into isoflavone aglycons by diglycosidase using soybean materials;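 note: percent of the isoflavone family total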
Format: biochemical, Penicillium multicolor IAM7153
Conditions: roasted soy flour, substrate concentration 20%, heat treatment of enzyme no, reaction time 3 h
Readout: Decomposition efficiency: ratio of each glycoside/aglycon within its isoflavone family (%)

(a) COc1cc2c(=O)c(-c3ccc(O)cc3)coc2cc1O[C@@H]1O[C@H](COC(C)=O)[C@@H](O)[C@H](O)[C@H]1O
(b) CC(=O)OC[C@H]1O[C@@H](Oc2cc(O)c3c(=O)c(-c4ccc(O)cc4)coc3c2)[C@H](O)[C@@H](O)[C@@H]1O
In: // compare measured Decomposition efficiency: ratio of each glycoside/aglycon within its isoflavone family, left a , right b , return larger Returns: label corresponding to the selected item.
Out: b
(b: 35.8%, a: 13.8%)

----------
Tested on: Crude diglycosidase
Assay: Examination of pH in the conversion into isoflavone aglycons by diglycosidase using soybean materials
Assay type: biochemical, Penicillium multicolor IAM7153
Settings: pH1.6; heat treatment of enzyme: no; reaction time 6 h
Decomposition efficiency of daidzin family in concentrated soybean protein reference
Respond with the bare value in %.

The cases that follow already have their Decomposition efficiency of daidzin family in concentrated soybean protein on record.
- Query Smiles: "CC(=O)OC[C@H]1O[C@@H](Oc2ccc3c(=O)c(-c4ccc(O)cc4)coc3c2)[C@H](O)[C@@H](O)[C@@H]1O"
  Result: 39.4
- Query Smiles: "O=c1c(-c2ccc(O)cc2)coc2cc(O)ccc12"
  Result: 3.4

In: Supply reported Decomposition efficiency of daidzin family in concentrated soybean protein belonging to this compound: O=c1c(-c2ccc(O)cc2)coc2cc(O[C@@H]3O[C@H](CO)[C@@H](O)[C@H](O)[C@H]3O)ccc12
Out: 57.2

----------
Tested on: Crude diglycosidase
Experiment: Examination of substrate concentration in the conversion into isoflavone aglycons by diglycosidase using soybean materials;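 note: percent of the isoflavone family total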
Type: biochemical, Penicillium multicolor IAM7153
Conditions: roasted soy flour, substrate concentration 10%, heat treatment of enzyme no, reaction time 0 h
Readout: Decomposition efficiency: ratio of each glycoside/aglycon within its isoflavone family (%)
Respond with the bare value in %.

- Query Smiles: "CC(=O)OC[C@H]1O[C@@H](Oc2ccc3c(=O)c(-c4ccc(O)cc4)coc3c2)[C@H](O)[C@@H](O)[C@@H]1O"
  Target Desc: "Crude diglycosidase"
  Uom: "%"
  Result: 38.5
- Query Smiles: "O=c1c(-c2ccc(O)cc2)coc2cc(O[C@@H]3O[C@H](CO)[C@@H](O)[C@H](O)[C@H]3O)ccc12"
  Target Desc: "Crude diglycosidase"
  Uom: "%"
  Result: 60.1

# next compound below
In: Param request: Decomposition efficiency: ratio of each glycoside/aglycon within its isoflavone family | system Crude diglycosidase | item O=c1c(-c2ccc(O)cc2)coc2cc(O[C@@H]3O[C@H](CO)[C@@H](O)[C@H](O)[C@H]3O)cc(O)c12
Out: 59.5
